- TGT: T1, FcγRIIB (form not stated) (UniProt P31994 43-217, limits assumed)
- T1 construct: also called FcγRIIB (ELISA)
- T1 sequence (looked up): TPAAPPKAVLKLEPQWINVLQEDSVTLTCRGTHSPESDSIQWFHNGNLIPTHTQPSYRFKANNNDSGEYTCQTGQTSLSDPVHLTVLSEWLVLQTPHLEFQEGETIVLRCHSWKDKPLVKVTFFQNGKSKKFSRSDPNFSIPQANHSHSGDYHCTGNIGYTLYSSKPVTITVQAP
- ASSAY METHOD TEXT: ELISA

[
  {
    "BINDER": "ch4-4-20 F275I, K334N, V348M (antibody) heavy: ASTKGPSVFPLAPSSKSTSGGTAALGCLVKDYFPEPVTVSWNSGALTSGVHTFPAVLQSSGLYSLSSVVTVPSSSLGTQTYICNVNHKPSNTKVDKKVEPKSCDKTHTCPPCPAPELLGGPSVFLFPPKPKDTLMISRTPEVTCVVVDVSHEDPEVKINWYVDGVEVHNAKTKPREEQYNSTYRVVSVLTVLHQDWLNGKEYKCKVSNKALPAPIENTISKAKGQPREPQMYTLPPSRDELTKNQVSLTCLVKGFYPSDIAVEWESNGQPENNYKTTPPVLDSDGSFFLYSKLTVDKSRWQQGNVFSCSVMHEALHNHYTQKSLSLSPGK",
    "binding result": "binds"
  }
]
